Test system: CCRIS mutagenicity, Ames/micronucleus/aberration tests
protocolDetails: CCRIS mutagenicity studies
testParameters: Test System: AMES SALMONELLA TYPHIMURIUM; Strain/Indicator: TA1537; Metabolic Activation: RAT, LIVER, S-9, AROCLOR 1254; Method: STANDARD PLATE
Active and inactive are the calls of the source. How the calls were made is not given here.
Outcome codes: active, inactive

{"columns": ["compound", "classLabel"],
 "data": [
  ["O=C1c2c(O)ccc([N+](=O)[O-])c2C(=O)c2c([N+](=O)[O-])ccc(O)c21", "active"],
  ["CCOC(=O)CBr", "inactive"],
  ["CC/C=C\\C/C=C\\C/C=C\\CCCCCCCC(=O)O", "inactive"],
  ["ClC(Cl)Cl", "active"],
  ["C=CC(=O)OCCCCCCOC(=O)C=C", "inactive"],
  ["CNC(=O)c1cccc2c(Nc3ccc(NS(C)(=O)=O)cc3OC)c3cccc(C)c3nc12", "active"],
  ["NCC(=O)O", "inactive"],
  ["CN(C)c1ccc(C(=O)c2ccc(N(C)C)cc2)cc1", "inactive"],
  ["Nc1ccc(Cl)c(N)c1", "active"],
  ["C(=Nc1ccccc1)c1cccc2cccnc12", "inactive"],
  ["C[n+]1c2cc(N)ccc2cc2ccc(N)cc21 (tested in a mixture with another compound)", "active"],
  ["Nc1cc2nc3ccccc3nc2cc1O", "active"],
  ["O=[N+]([O-])C1=Cc2c3c1cccc3cc1ccc3ccccc3c21", "inactive"],
  ["C=C(C)OC(C)=O", "inactive"],
  ["Nc1ncnc2c1ncn2[C@H]1CC[C@@H](CO)O1", "inactive"]
]}

---

Test system: CCRIS mutagenicity, Ames/micronucleus/aberration tests
protocolDetails: CCRIS mutagenicity studies
testParameters: Test System: AMES SALMONELLA TYPHIMURIUM; Strain/Indicator: TA100; Metabolic Activation: RAT, LIVER, S-9, AROCLOR 1254; Method: STANDARD PLATE
The source made the active and inactive calls. How the calls were made is not given here.
Possible outcomes: active, inactive

{"columns": ["compound", "classLabel"],
 "data": [
  ["O[C@H]1C=Cc2c(ccc3cc4c(ccc5ccccc54)cc23)[C@@H]1O", "active"],
  ["Cc1c2ccccc2c(CO)c2ccc3ccccc3c12", "active"],
  ["Cl/C=C(\\Cl)C(Cl)Cl", "active"],
  ["O[C@@H]1C=Cc2c(ccc3cc4c(ccc5ccccc54)cc23)[C@H]1O", "active"],
  ["COc1cc(C[C@@H]2NCCc3cc(O)c(O)cc32)cc(OC)c1OC", "inactive"],
  ["ClCCCl", "active"],
  ["O=S(=O)(O)c1ccc2ccc3cccc4ccc1c2c34", "active"],
  ["O=c1[nH]c2c(c(=O)n1C1CCCCC1)CCC2", "inactive"],
  ["O=[N+]([O-])c1cc(C(F)(F)F)cc([N+](=O)[O-])c1O", "inactive"],
  ["Nc1ccc2ccc3cccc4ccc1c2c34", "active"],
  ["Cc1ccc(C(=O)O[C@@H](C(=O)O)[C@@H](OC(=O)c2ccc(C)cc2)C(=O)O)cc1 (tested in a mixture with another compound)", "active"],
  ["O=[N+]([O-])C1=Cc2c3c1cccc3cc1ccc3ccccc3c21", "inactive"],
  ["O=NN(CC(=O)O)CC1(O)OCC(O)C(O)C1O (configuration not stated)", "inactive"],
  ["O=[N+]([O-])c1cc(NS(=O)(=O)c2cccc3cccnc23)ccc1Cl", "inactive"],
  ["Cc1c2ccccc2c(C)c2ccccc12", "active"],
  ["O=S(=O)(O)N(O)S(=O)(=O)O", "active"],
  ["CC(=O)N(O)c1ccc(Cl)cc1", "inactive"],
  ["NC(=O)CCC(=O)Nc1ccc(Cl)c(Cl)c1", "inactive"],
  ["Nc1ccc(Cl)cc1", "inactive"],
  ["C(=Nc1ccccc1)c1cccc2cccnc12", "active"],
  ["C[C@H](CCC(=O)O)[C@H]1CC[C@H]2[C@@H]3[C@H](O)C[C@@H]4C[C@H](O)CC[C@]4(C)[C@H]3CC[C@]12C", "inactive"],
  ["CC(=O)c1ccccn1", "inactive"],
  ["O=S(=O)(Nc1ccc(Cl)c(Cl)c1)c1cccc2cccnc12", "inactive"],
  ["CCCO", "inactive"],
  ["CCc1cn([C@H]2C[C@H](O)[C@@H](CO)O2)c(=O)[nH]c1=O", "inactive"],
  ["CCOc1ccc(N=O)cc1", "active"],
  ["O=C(c1ccc(F)cc1)[C@@H]1O[C@@H]1c1ccccc1", "inactive"]
]}
